Entry source: PubChem BioAssay (NCATS)

test system: DIV17; assay: qHTS profiling for inhibitors of Plasmodium falciparum proliferation (AID 504749); further: nearly all actives have a fitted effect of over 60% in size; settings: P. falciparum in erythrocytes, SYBR Green DNA, 72 h; series mostly up to 28.7 µM
Results filed as inconclusive are left out. Active and inactive are the calls of the source. The call rests on the fitted dose curve; in most records, active means well fitted inhibition curve with a large enough effect; inconclusive means small, poorly fitted or top-dose-only effect; inactive means flat fitted curve, though single readings scatter.
Valid outcomes are listed here; reply with one: active, inactive

Observe how each entry below is paired with its result.
molecule | experimental_system | group_label
CCCCCCCCCCCCCC(=O)OCC(COP(=O)([O-])OCC[N+](C)(C)C)OC(=O)CCCCCCCCCCCCC (stereo unspecified) | DIV17 | inactive
CC(C)(C)CC(C)(C)c1cc(Cc2cc(C(C)(C)CC(C)(C)C)cc(-n3nc4ccccc4n3)c2O)c(O)c(-n2nc3ccccc3n2)c1 | DIV17 | inactive
O=S(=O)(O)CCCS(=O)(=O)O | DIV17 | inactive

*Q* Any idea what this test logged for `Cc1ccc(C(C)(C)c2ccc(C)cc2)cc1` ?
*A* inactive

*Q* Any idea what this test logged for `CCc1ncnc2cc(OC)c(OC)cc12` ?
*A* inactive
